- EXPERIMENTAL_SYSTEM: Pantothenate synthetase (Mycobacterium tuberculosis (strain ATCC 25618 / H37Rv)) (UniProt P9WIL5)
- Sequence (P9WIL5 whole entry, looked up): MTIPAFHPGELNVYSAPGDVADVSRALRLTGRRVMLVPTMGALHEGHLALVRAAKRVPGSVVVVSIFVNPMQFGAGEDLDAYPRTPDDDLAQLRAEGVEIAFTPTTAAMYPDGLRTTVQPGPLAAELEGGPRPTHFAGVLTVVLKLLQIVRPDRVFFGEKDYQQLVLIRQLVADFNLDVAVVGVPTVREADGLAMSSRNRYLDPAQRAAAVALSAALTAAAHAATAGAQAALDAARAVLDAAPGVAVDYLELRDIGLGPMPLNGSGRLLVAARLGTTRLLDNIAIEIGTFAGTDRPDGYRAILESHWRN
- METHOD: Coupled enzyme confirmation of inhibitors against recombinant Mtb PanC (AID 375);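 note: 0% = full reaction with vehicle and 100% = no enzyme background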
- CONDITION_DETAILS: coupled enzyme assay; at 10 µM, hits give high values
ENDPOINT: inhibition (%)

Cn1c(Cc2csc(N)n2)nnc1SCC(=O)NCc1ccccc1 :: 3
COc1cc2nc(N3CCN(C(=O)C4CCCO4)CC3)nc(N)c2cc1OC (stereo not drawn) :: 0
O=C(COC(=O)c1ccc(Br)o1)Nc1ccc(S(=O)(=O)N2CCCC2)cc1 :: 5
Nc1nonc1-c1noc(-c2ccccc2Br)n1 :: 0
CCCCNC(=O)OC(C)CNC(=O)Oc1cccc(C)c1 (stereo not drawn) :: 0
Cc1cc(/C=N\O)c(C)n1-c1ccncc1 :: 0
O=S(=O)(Nc1cccnc1)c1ccc2c(c1)OCCO2 :: 1
CCCCCCC(N)CC(=O)O (stereo not drawn) :: 0
Cc1cccn2c(=O)c3cc(C(=O)NC4CCCC4)c(=N)n(C4CCCC4)c3nc12 :: 0
Brc1c(NC2=NCCN2)ccc2nccnc12 :: 0
Cc1ccc2nc(SC(C)C(=O)N3CCCC3)[nH]c2c1 (stereo not drawn) :: 2
COc1ccc(Cl)cc1S(=O)(=O)n1cnc2ccccc21 :: 1
CC(C)=CCSc1nnc(CCNC(=O)OC(C)(C)C)o1 :: 3
Cc1ccccc1-c1nc(CN2CCC(C(=O)NCc3cccnc3)CC2)c(C)o1 :: 0
Cc1ccnc(NC(=O)CCC(=O)N(CC(=O)NC2CCCCC2)c2cccc(C)c2C)c1 :: 0
CCn1c(SCc2nc(-c3cccs3)no2)nnc1-c1c[nH]c2ccccc12 :: 0
Cc1cccc(C2CC(c3ccc(Cl)cc3)Nc3nc(N)nn32)c1 (stereo not drawn) :: 0
Cc1cccc(N2CCN(C(=O)C3CCCN(S(=O)(=O)c4cnc[nH]4)C3)CC2C)c1 (stereo not drawn) :: 0
O=C(O)CCc1ccc(-c2ccccc2)n1CC(=O)O :: 0
C=CCN1C(=O)/C(=C2\SC(N3CCOCC3)=NC2=O)c2cc(Br)ccc21 :: 0
CCOC(=O)c1cc(-c2ccc3c(c2)OCO3)nc2onc(C)c12 :: 0
Cc1cc2c(c(=O)n1CCc1ccccc1)C(C(C)C)C(C#N)=C(N)O2 (stereo not drawn) :: 5
COc1ccc(N2CCN(C(=O)Cc3ccc(-n4c(=O)[nH]c5ccccc5c4=O)cc3)CC2)cc1 :: 6
CCn1ncc(C2=NOC(C(=O)N3CCC(C(N)=O)CC3)C2)c1C (stereo not drawn) :: 0
COC(=O)c1ccc(NC(=O)C2C3CCC(C3)C2C(=O)O)cc1 (stereo not drawn) :: 0
Cc1ccc(S(=O)(=O)N2C(=O)CCC2C(=O)Nc2ccc3c(c2)OCCO3)cc1 (stereo not drawn) :: 0
Cc1onc(-c2ccccc2)c1C(=O)Nc1ccc(S(=O)(=O)N2CCCCC2)cc1 :: 0
COc1ccc(-n2c(SCC#N)nc3ccccc3c2=O)cc1 :: 1
